# Test system: HepG2
# procedure.text: GSK_TCMDC: Percent inhibition of human HepG2 cell line. Test compounds present at 10uM.
# Type: functional
Inhibition reference
Please answer using a numeric value trailed by its unit.

Solved entries:
Query: State, for HepG2, measured Inhibition of the compound listed here: "CC(C)(C)c1ccc(S(=O)(=O)Nc2ccccc2Cn2nc(N3CCNCC3)ccc2=O)cc1.O=C(O)C(F)(F)F"
Reply: 0%

Query: // output Inhibition; input "O=[N+]([O-])c1ccc(C2=NN(S(=O)(=O)c3c(Cl)cc(Cl)cc3Cl)CCCC2)cc1" ; system HepG2
Reply: 5%

Query: GET Inhibition | system: HepG2 | item: "CCCc1cc(NC2CCN(C)CC2)nc(Nc2cccc(OC)c2)n1"
Reply: 31%

Query: Look up and report Inhibition, with HepG2 as system, for "CCc1cn2c3c(cc(C(=O)N[C@@H](Cc4ccccc4)[C@H](O)CNC4CCC4)cc13)N(C)S(=O)(=O)CC2"
Reply: 0%

Query: Please look at CC(C)(C)C1CCC(CC2=C(C(=O)O)c3ccccc3C2=O)CC1 (stereo not given) and tell me its recorded Inhibition on HepG2.
Reply: 0%

Query: Send back HepG2 Inhibition of "CCN(CC)CCN(Cc1ccc(-c2ccc(C(F)(F)F)cc2)cc1)C(=O)Cn1c(CCc2cccc(F)c2F)nc(=O)c2sccc21.O=C(O)C(O)C(O)C(=O)O" only.
Reply: 70%

Query: State, for HepG2, measured Inhibition of the compound listed here: "O=C(/C=C/c1ccc(Cl)c(Cl)c1)N1CCC(CCN2CCC(c3c[nH]c4cc5c(cc34)OCO5)CC2)CC1"
Reply: 46%

Query: Report value only: Inhibition, HepG2, "Cn1c(NC(=O)c2ccc(CNC(=O)c3ccc(O)c(-c4ccc(Cl)c(Cl)c4)c3)cc2)nc2ccccc21"
Reply: 20%

Further cases:
Query: Please report Inhibition with HepG2 for item "C=CCc1cc(OC)ccc1OCCCOc1c(C)nc(N)nc1N.Cl" .
Reply: 67%

Query: Give measured Inhibition for "O=C(Nc1ccccc1N1CCOCC1)c1ncoc1-c1ccccc1C(F)(F)F" (HepG2).
Reply: 0%

Query: Find Inhibition for "COc1ccc2[nH]c(C(=O)Nc3cccc(-c4ccc(CN(C)C)cc4)c3)cc2c1" on HepG2 and write it down.
Reply: 23%

Query: Report Inhibition on HepG2 for this entry: CN(C)S(=O)(=O)c1ccc(N2C(=O)C3C(C2=O)C2(c4ccccc4)C(=O)C3(c3ccccc3)C(c3ccccc3)=C2c2ccccc2)cc1 (stereo not given)
Reply: 0%

Query: State the measured Inhibition (HepG2) of "CCNC(=O)Nc1ccc(N(C)c2ccnc(NC3CC3)n2)cc1"
Reply: 21%

Query: Consider the compound "O=C(/C=C/c1ccc(Cl)c(Cl)c1)NCCCCN1CCCN(C(=O)Nc2ccc(F)c(Cl)c2)CC1" tested on HepG2; state its Inhibition.
Reply: 69%

Query: Specify the recorded Inhibition for "N#Cc1cnc2cc(-c3cnc(CNCCN4CCOCC4)s3)ccc2c1Nc1ccc(Oc2ccccc2)cc1" , system: HepG2.
Reply: 30%
